# tested system: ROCK I (AA 6-553) (Homo sapiens)
# Construct: ROCK I (AA 6-553)
# Sequence (Q13464 6-553, species assumed): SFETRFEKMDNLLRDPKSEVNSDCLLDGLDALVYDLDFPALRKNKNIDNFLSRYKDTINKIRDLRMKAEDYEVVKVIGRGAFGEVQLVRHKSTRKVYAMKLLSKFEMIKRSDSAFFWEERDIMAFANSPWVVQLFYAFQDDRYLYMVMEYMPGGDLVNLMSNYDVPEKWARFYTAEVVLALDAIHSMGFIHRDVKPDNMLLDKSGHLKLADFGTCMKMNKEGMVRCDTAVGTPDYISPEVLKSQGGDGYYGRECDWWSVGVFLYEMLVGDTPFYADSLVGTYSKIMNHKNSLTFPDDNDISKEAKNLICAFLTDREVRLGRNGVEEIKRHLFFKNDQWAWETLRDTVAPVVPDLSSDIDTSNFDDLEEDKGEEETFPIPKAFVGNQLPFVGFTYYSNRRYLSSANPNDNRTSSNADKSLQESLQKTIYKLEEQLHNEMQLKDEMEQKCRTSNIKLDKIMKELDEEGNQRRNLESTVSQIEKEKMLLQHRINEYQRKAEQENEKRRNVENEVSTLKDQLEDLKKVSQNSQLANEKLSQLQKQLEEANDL
# assay explanation: ROCK inhibition assay, standard coupled enzyme system ("Enzyme")
# Type: biochemical
# condition details: enzyme-linked assay
pKi: −log10 of the molar value.
metric: pKi

Worked cases, pKi given:
COc1cccc(-c2cnc3[nH]cc(-c4ccc(C(N)=O)cc4)c3c2)c1 : > 6.30
CC(=O)N1[C@H](C)CN(c2cccc(-c3c[nH]c4ncc(NC(=O)c5ccccc5)cc34)n2)C[C@@H]1C : > 6.30

Qu. Specify pKi for CC(=O)N1[C@H](C)CN(c2cccc(-c3c[nH]c4ncc(NC(=O)C(C)C)cc34)n2)C[C@@H]1C and stop.
Ans. 5.30 to 6.30

Qu. Specify pKi for CC(C)CNc1cccc(-c2c[nH]c3ncc(Cl)cc23)n1 and stop.
Ans. 5.30 to 6.30

Qu. Specify pKi for COc1cnc2[nH]cc(-c3ncc(F)c(N[C@@H](C)C(=O)NCC(F)(F)F)n3)c2c1 and stop.
Ans. 5.30 to 6.30

Qu. Specify pKi for Fc1cnc(-c2c[nH]c3ncc(Cl)cc23)nc1NCC1CCCCN1 (centres unmarked) and stop.
Ans. 5.30 to 6.30

Qu. Specify pKi for CC(=O)N1[C@H](C)CN(c2cccc(-c3c[nH]c4ncc(NC(=O)C5=CCCCC5)cc34)n2)C[C@@H]1C and stop.
Ans. 5.30 to 6.30

Qu. Specify pKi for CNC(=O)[C@H](COC)Nc1nc(-c2c[nH]c3ncc(Cl)cc23)ncc1F and stop.
Ans. 5.30 to 6.30

* * *

Sequence of the target: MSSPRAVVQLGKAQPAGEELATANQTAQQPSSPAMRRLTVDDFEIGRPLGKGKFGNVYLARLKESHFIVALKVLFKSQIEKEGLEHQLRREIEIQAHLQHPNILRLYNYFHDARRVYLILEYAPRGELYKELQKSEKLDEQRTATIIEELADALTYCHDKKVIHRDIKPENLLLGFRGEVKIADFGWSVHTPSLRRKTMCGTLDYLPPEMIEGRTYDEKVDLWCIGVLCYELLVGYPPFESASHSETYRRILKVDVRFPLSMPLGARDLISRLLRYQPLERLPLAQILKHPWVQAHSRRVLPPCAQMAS
pKi: −log10 of the molar value.
# pKi annotations

Worked cases, pKi given:
CNC(=O)[C@H](CO)Nc1nc(-c2c[nH]c3ncc(Cl)cc23)ncc1F : > 6.30
C[C@H](Nc1nc(-c2c[nH]c3ncc(Cl)cc23)ncc1F)C(=O)NCCNC(=O)OCc1ccccc1 : > 6.30
C[C@H](Nc1nc(-c2c[nH]c3ncc(Cl)cc23)ncc1F)c1cccc(O)c1 : > 6.30
C[C@H](Nc1nc(-c2c[nH]c3ncc(Cl)cc23)ncc1F)C(=O)NCCc1ccc(S(N)(=O)=O)cc1 : > 6.30
CCc1cnc(-c2c[nH]c3ncc(Cl)cc23)nc1N[C@@H](C)c1ccc(F)cc1 : > 6.30
Clc1ccc(CNc2cccc(-c3c[nH]c4ncc(Cl)cc34)n2)cc1 : > 6.30
CC(C)c1cnc(-c2c[nH]c3ncc(Cl)cc23)nc1N[C@@H](C)C(=O)NCC(F)(F)F : 5.30 to 6.30
C[C@H](Nc1nc(-c2c[nH]c3ncc(Cl)cc23)ncc1F)c1cccc(O[C@H]2CCNC2)c1 : > 6.30
C[C@H](Nc1nc(-c2c[nH]c3ncc(Cl)cc23)ncc1F)C(=O)NCCN : > 6.30
Fc1cnc(-c2c[nH]c3ncc(Cl)cc23)nc1NCC1CCNC1 (centres unmarked) : > 6.30

Qu. Specify pKi for CC[C@H](Nc1nc(-c2c[nH]c3ncc(Cl)cc23)ncc1F)C(=O)NC and stop.
Ans. > 6.30

Qu. Specify pKi for Fc1cnc(-c2c[nH]c3ncc(Cl)cc23)nc1NCc1ccc(Cl)cc1 and stop.
Ans. > 6.30

Qu. Specify pKi for C[C@H](Nc1nc(-c2c[nH]c3ncc(Cl)cc23)ncc1F)C(=O)NCCn1cccc1 and stop.
Ans. > 6.30

Qu. Specify pKi for CC(=O)NCCNC(=O)[C@H](C)Nc1nc(-c2c[nH]c3ncc(Cl)cc23)ncc1F and stop.
Ans. > 6.30

Qu. Specify pKi for Fc1cnc(-c2c[nH]c3ncc(Cl)cc23)nc1NCc1cccnc1 and stop.
Ans. > 6.30

Qu. Specify pKi for Clc1cnc2[nH]cc(-c3cccc(NC4CCCCC4)n3)c2c1 and stop.
Ans. 5.30 to 6.30

Qu. Specify pKi for Fc1cnc(-c2c[nH]c3ncc(Cl)cc23)nc1NC1CCNCC1 and stop.
Ans. 5.30 to 6.30

Qu. Specify pKi for CNC(=O)c1cc(N[C@@H](C)c2ccc(F)cc2)nc(-c2c[nH]c3ncc(Cl)cc23)n1 and stop.
Ans. > 6.30

Qu. Specify pKi for CNC(=O)CNc1nc(-c2c[nH]c3ncc(Cl)cc23)ncc1C(C)C and stop.
Ans. 5.30 to 6.30

* * *

# tested system: full length Aurora-A (AA 1-403) (Homo sapiens, UniProt O14965)
# Sequence (O14965 1-403): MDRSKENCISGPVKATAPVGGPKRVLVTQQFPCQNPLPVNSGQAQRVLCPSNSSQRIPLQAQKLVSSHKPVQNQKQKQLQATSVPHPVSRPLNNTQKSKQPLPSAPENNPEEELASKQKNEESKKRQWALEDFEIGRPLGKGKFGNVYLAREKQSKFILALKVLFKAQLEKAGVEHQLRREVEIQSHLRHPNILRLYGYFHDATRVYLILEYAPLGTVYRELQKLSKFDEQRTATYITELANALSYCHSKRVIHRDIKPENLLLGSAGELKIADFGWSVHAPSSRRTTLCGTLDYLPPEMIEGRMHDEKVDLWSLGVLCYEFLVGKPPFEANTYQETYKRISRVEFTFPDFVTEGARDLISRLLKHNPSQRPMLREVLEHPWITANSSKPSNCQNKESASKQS
pKi: −log10 of the molar value.
# pKi annotations

Qu. Specify pKi for O=Cc1cc(-c2c[nH]c3ncc(Cl)cc23)nc(N2CCNCC2)c1 and stop.
Ans. > 6.30

Qu. Specify pKi for CC(Nc1nc(-c2c[nH]c3ncc(Cl)cc23)ncc1F)c1ccc(Cl)cc1 (centres unmarked) and stop.
Ans. > 6.30

Qu. Specify pKi for C[C@H](Nc1nc(-c2c[nH]c3ncc(Cl)cc23)ncc1F)C(=O)NCC[C@H]1CCCN1C and stop.
Ans. 5.30 to 6.30

Qu. Specify pKi for COC(=O)COc1cccc([C@H](C)Nc2nc(-c3c[nH]c4ncc(Cl)cc34)ncc2F)c1 and stop.
Ans. > 6.30

* * *

# tested system: full length Aurora-A (AA 1-403) (Homo sapiens)
# Sequence (O14965 1-403): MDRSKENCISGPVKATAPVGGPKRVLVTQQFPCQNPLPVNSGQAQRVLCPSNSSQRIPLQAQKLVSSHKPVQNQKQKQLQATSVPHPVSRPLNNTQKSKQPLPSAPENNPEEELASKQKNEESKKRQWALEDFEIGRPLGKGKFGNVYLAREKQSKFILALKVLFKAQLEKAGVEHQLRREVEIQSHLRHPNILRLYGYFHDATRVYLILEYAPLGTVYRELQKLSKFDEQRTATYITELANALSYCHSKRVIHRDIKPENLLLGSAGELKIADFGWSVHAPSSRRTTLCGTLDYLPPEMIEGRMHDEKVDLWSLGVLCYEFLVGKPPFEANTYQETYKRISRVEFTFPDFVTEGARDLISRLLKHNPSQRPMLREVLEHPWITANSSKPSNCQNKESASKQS
metric: Ki

Worked cases, Ki given:
Nc1ccc(-c2c[nH]c3ncc(-c4ccccc4)cc23)cc1 [Compound 232] : < 500 nM
Clc1ccc(CNc2cccc(-c3c[nH]c4ncc(-c5ccccc5)cc34)n2)cc1Cl [Compound 261] : 500 to 5000 nM
NC(=O)c1cccc(-c2c[nH]c3ncc(-c4ccc(F)cc4)cc23)c1 [Compound 228] : < 500 nM
NCCC[C@H](Nc1nc(-c2c[nH]c3ncc(Cl)cc23)ncc1F)C(=O)O [Compound 403] : 500 to 5000 nM
CC(=O)N1[C@H](C)CN(c2cccc(-c3c[nH]c4ncc(NC(=O)C(C)C)cc34)n2)C[C@@H]1C [Compound 117] : 500 to 5000 nM
C[C@@H](Nc1cccc(-c2c[nH]c3ncc(Cl)cc23)n1)c1ccc(F)cc1 [Compound 131] : < 500 nM

Qu. Provide measured Ki on full length Aurora-A (AA 1-403) (Homo sapiens) for CNC(=O)[C@H](C)Nc1nc(-c2c[nH]c3ncc(Cl)cc23)ncc1F [Compound 340] please.
Ans. < 500 nM

Qu. Provide measured Ki on full length Aurora-A (AA 1-403) (Homo sapiens) for CCCNc1cccc(-c2c[nH]c3ncc(-c4ccccc4)cc23)n1 [Compound 259] please.
Ans. < 500 nM

Qu. Provide measured Ki on full length Aurora-A (AA 1-403) (Homo sapiens) for C[C@@H](Nc1nc(-c2c[nH]c3ncc(Cl)cc23)ncc1F)c1ccc(N)cc1 [Compound 313] please.
Ans. < 500 nM

Hello, the source for this data is patent US8501446B2, in case you need it.
